# tgt: human bradykinin 1 receptor (B1R) (Homo sapiens, UniProt P46663)
# Construct: expressed in transfected cells; host or cells: CHO K1 cells
# Sequence (P46663 whole entry): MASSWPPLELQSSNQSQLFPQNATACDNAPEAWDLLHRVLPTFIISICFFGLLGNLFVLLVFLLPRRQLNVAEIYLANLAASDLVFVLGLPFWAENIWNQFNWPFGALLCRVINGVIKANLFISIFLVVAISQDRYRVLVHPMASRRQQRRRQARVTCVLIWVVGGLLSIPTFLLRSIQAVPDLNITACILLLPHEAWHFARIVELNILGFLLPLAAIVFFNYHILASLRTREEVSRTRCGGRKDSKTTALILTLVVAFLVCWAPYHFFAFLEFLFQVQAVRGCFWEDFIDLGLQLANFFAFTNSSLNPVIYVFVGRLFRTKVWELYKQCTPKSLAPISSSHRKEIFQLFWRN
# run.description: Functional investigation on the human bradykinin 1 receptor (B1R), Ca2+ FLIPR assay in CHO K1 hB1R cells
# Format: cell-based
# run.conditions: CHO-K1, B1R antagonism human; test substance 10 μM; Ca2+ FLIPR, CHO K1 hB1R cells; read-out: B1R Ant. h [10 μM] % Inhibition
Measured inhibition at 10 µM of individual entries

{"compound": "CN(C)C(c1cccc(F)c1)C1CCC(CCNC(=O)COCC2CCCCN2S(=O)(=O)c2ccc(Cl)c(Cl)c2)CC1 (centres unmarked) [Example 147]", "inhibition at 10 µM [%]": 52}
{"compound": "COc1cc(C)c(S(=O)(=O)N2CCC(OCC(=O)NCC3CCC(C(CCc4ccccc4)N4CCCC4)CC3)C2)c(C)c1 (centres unmarked) [Example 726]", "inhibition at 10 µM [%]": 103}
{"compound": "Cc1ccc(S(=O)(=O)N(C)CCOCC(=O)NCC2CCC(C(c3cccs3)N(C)C)CC2)cc1 (centres unmarked) [Example 4]", "inhibition at 10 µM [%]": 2}
{"compound": "COc1cc(C)c(S(=O)(=O)N2CCCC2COCC(=O)NC2CCC(C(CCc3ccccc3)N3CCCCC3)CC2)c(C)c1 (centres unmarked) [Example 677]", "inhibition at 10 µM [%]": 104}
{"compound": "CN(CCOCC(=O)NCC1CCC(C(c2ccccc2)N2CCCC2)CC1)S(=O)(=O)c1ccc(Cl)cc1Cl (centres unmarked) [Example 641]", "inhibition at 10 µM [%]": 96}
{"compound": "O=C(COC1CCN(S(=O)(=O)c2c(Cl)cc(Cl)cc2Cl)C1)NC1CCC(C(c2ccccc2)N2CCCC2)CC1 (centres unmarked) [Example 635]", "inhibition at 10 µM [%]": 67}
{"compound": "CN(C)C(c1cccs1)C1CCC(NC(=O)CNC(=O)c2nc(-c3ccc(C(F)(F)F)cc3)no2)CC1 (centres unmarked) [Example 777]", "inhibition at 10 µM [%]": -1}
{"compound": "O=C(COCC1CCCN1S(=O)(=O)c1c(Cl)cc(Cl)cc1Cl)NCC1CCC(C(c2ccccc2)N2CCOCC2)CC1 (centres unmarked) [Example 710]", "inhibition at 10 µM [%]": 42}
{"compound": "COc1cc(C)c(S(=O)(=O)N2CCCC(OCC(=O)NC3CCC(C(c4ccccc4)N4CCCC4)CC3)C2)c(C)c1 (centres unmarked) [Example 647]", "inhibition at 10 µM [%]": 92}
{"compound": "O=C(COC1CCCN(S(=O)(=O)c2c(Cl)cc(Cl)cc2Cl)C1)NCC1CCC(C(c2ccccc2)N2CCCC2)CC1 (centres unmarked) [Example 656]", "inhibition at 10 µM [%]": 76}
{"compound": "COc1ccc(S(=O)(=O)N2CCCCC2COCC(=O)NCC2CCC(C(c3cccs3)N(C)C)CC2)c(OC)c1 (centres unmarked) [Example 49]", "inhibition at 10 µM [%]": 2}
{"compound": "CN1CCN(C(c2ccccc2)C2CCC(NC(=O)COCCN(C)S(=O)(=O)c3c(Cl)cc(Cl)cc3Cl)CC2)CC1 (centres unmarked) [Example 714]", "inhibition at 10 µM [%]": 104}
{"compound": "COc1ccc(S(=O)(=O)N2Cc3ccccc3CC2COCC(=O)NC2CCC(C(c3ccccc3)N(C)C)CC2)cc1 (centres unmarked) [Example 38]", "inhibition at 10 µM [%]": 45}
{"compound": "COc1cc(C)c(S(=O)(=O)N2CCC(CCOCC(=O)NC3CCC(C(c4ccc(F)cc4)N(C)C)CC3)CC2)c(C)c1C (centres unmarked) [Example 178]", "inhibition at 10 µM [%]": 24}
